- experimentSummary: excess molar enthalpy (molar enthalpy of mixing); xn = mol fraction of the nth substance listed
- recordedConditions: 298.15 K; 101.33 kPa; Liquid; x1 = 0.4001

compound | excess molar enthalpy
COC(F)(F)C(F)(F)C(F)(F)C(F)(F)F [1-methoxy-nonafluorobutane] + COCCOCCOC | 0.0839 kcal/mol
COC(F)(F)C(F)(F)C(F)(F)C(F)(F)F [1-methoxy-nonafluorobutane] + CCOCCO | 0.135 kcal/mol
COC(F)(F)C(F)(F)C(F)(F)C(F)(F)F [1-methoxy-nonafluorobutane] + COCCO | 0.133 kcal/mol
COC(F)(F)C(F)(F)C(F)(F)C(F)(F)F [1-methoxy-nonafluorobutane] + CCCCOCCO | 0.18 kcal/mol

====

Measured mass density accompanies every entry in the list below.
- recordedConditions: 298.15 K; 101.33 kPa; Liquid

smilesRepresentation | mass density / kg/m3
CCOCCO | 924.92
COCCO | 960.01
COC(F)(F)C(F)(F)C(F)(F)C(F)(F)F | 1516.5
COCCOCCO | 1015.6
COCCOCCOC | 938.62
CCCCOCCO | 896.25
